Kindly supply the reported TGI values for the records listed here.
System: NCI-H460 lung
measurement_description: NCI tumour cell line growth inhibition, 48 h

Reported TGI of NC(CCSCC(F)F)C(=O)O (stereo unspecified) : > 100 µM

Reported TGI of COc1ccc(C(=O)C(C(=O)CCC(=O)Nc2cccc(C(F)(F)F)c2)c2ccccc2)cc1 (stereo unspecified) : > 100 µM

Reported TGI of CCCCCC(=O)Oc1ccc(/C(=C(\C)c2ccc(OC)cc2)c2ccc(OCCN3CCCCC3)cc2)cc1 : 15.8 µM

Reported TGI of CS(=O)(=O)Nc1ccc(-c2ccc3c(NC(=O)C4CC4)n[nH]c3c2)cc1 : > 25 µM

Reported TGI of CCOC(=O)/C(=C/c1ccco1)P(=O)(OCC)OCC : > 100 µM

Reported TGI of CNC(=O)c1ccc(-c2cnc3ncc(Cc4ccc5ncccc5c4)n3n2)cc1F : > 100 µM

###

Kindly supply the reported TGI values for the records listed here.
Tested on: UO-31 renal
measurement_description: NCI tumour cell line growth inhibition, 48 h
Output spec: scalar in µM, unitless text.

Reported TGI of O=C(/C=C1\C[C@H]2C=Nc3ccccc3C(=O)N2C1)NCCCCCNC(=O)/C=C1\C[C@H]2C=Nc3ccccc3C(=O)N2C1 : 3.8

Reported TGI of COC(=O)C(CCSC)NC(=O)CSc1nnc(COc2ccc(Cl)cc2)n1-c1ccccc1 (centres undefined) : 13.7

Reported TGI of CN1CCN(Cc2ccc(NC(=O)c3ccc(C(C)(C)C)c(C#Cc4cnc5cccnn45)c3)cc2C(F)(F)F)CC1 : 3.9

###

Kindly supply the reported TGI values for the records listed here.
Test system: KM12 colon
measurement_description: NCI tumour cell line growth inhibition, 48 h

Reported TGI of Clc1cc(Cl)c2c(Cl)cc(Cl)c3c2c1N=S=N3 : > 100 µM

Reported TGI of Cc1ccc2c(c1)C(=O)/C(=C\c1ccc(Cl)cc1)CCS2(=O)=O : 7.71 µM

Reported TGI of CCCC[C@@H]1CCN2C[C@@H](O)[C@@H](O)[C@H]2[C@@H]1O : > 100 µM

Reported TGI of COC(=O)c1cc(C(=O)OC)cc(-c2ccc3c(c2)-c2nc4c(c(-c5ccc(OC)cc5)c2CC3)CCc2ccc(-c3cc(C(=O)OC)cc(C(=O)OC)c3)cc2-4)c1 : > 100 µM

Reported TGI of Cc1cc2c(cc1Cl)SC(NNc1cnc3ccccc3n1)=NS2(=O)=O : > 100 µM

###

System: K-562 leukemia
measurement_description: NCI tumour cell line growth inhibition, 48 h
Kindly supply the reported GI50 values for the records listed here.

Reported GI50 of NCCN1CCN(c2nccc(-c3ccc4ccccc4c3)n2)CC1 : 2.09 µM

Reported GI50 of CC(=O)[CH-]C(C)=O.CC(=O)[CH-]C(C)=O.N=CC=N.[Sn+2] : 2.19 µM

Reported GI50 of Cc1ccc(C(=O)CC(Sc2cccc(Cl)c2Cl)c2ccc(Cl)cc2)cc1C (stereo not drawn) : 27.2 µM

Reported GI50 of Cc1sc(C)c(-c2ccc(CO)o2)c1-c1ccc(CO)o1 : 0.622 µM

Reported GI50 of O=P(O)(O)C(O)(Cn1ccnc1)P(=O)(O)O : > 100 µM

Reported GI50 of CCN(CCO)CCNc1ccc(C)c2sc3cc(Cl)ccc3c(=O)c12 : 0.32 µM

Reported GI50 of CCN(Cc1c(F)cccc1F)c1ccc(CO)c(Cl)c1 : 0.209 µM

Reported GI50 of COC(=O)c1c(O)ccc2[nH]c(C)c(C#N)c12 : 55.3 µM

Reported GI50 of O=C(N/N=C/c1ccc(Cl)cc1Cl)c1ccccc1Nc1cccc(C(F)(F)F)c1 : 4.86 µM

Reported GI50 of CN1CCN(Cc2ccc(NC(=O)c3ccc(C(C)(C)C)c(C#Cc4cnc5cccnn45)c3)cc2C(F)(F)F)CC1 : 0.932 µM

Reported GI50 of CN(C)CCNC(=O)Nc1c(C#N)[n+]([O-])c2cc(Cl)c(Cl)cc2[n+]1[O-] : 29.3 µM

Reported GI50 of CCCS(=O)(=O)c1nc(NC2CC2)cc(-c2ccc3c(ccn3C3CC(C)(C)NC(C)(C)C3)c2)n1 : 0.777 µM

Reported GI50 of CCCNCc1cc(C)cc2c1nc(N1CCNCC1)n2Cc1cc(C)c(F)c(C)c1 : 1.9 µM

###

System: KM20L2 colon
measurement_description: NCI tumour cell line growth inhibition, 48 h
measured_property: TGI

Reported TGI of COc1ccc(C2C(N)=NCC2c2ccccn2)cc1 (stereo unspecified) : > 100 µM

Reported TGI of N#Cc1c(N)c(C(=O)O)nn(-c2cccc(C(F)(F)F)c2)c1=O : > 100 µM

Reported TGI of CCOC(=O)Cc1nc(/C(C#N)=C/c2ccco2)[nH]c(=O)c1C#N : > 100 µM

Reported TGI of CN1CCN(C)C1c1cccc(C2N(C)CCN2C)c1 : > 100 µM

Reported TGI of CC(C)(C)C1(O)Cc2ccccc2C(=O)O1 (stereo unspecified) : > 100 µM

Reported TGI of CC(=O)c1c(C)n([O-])c2cc(C)c(C)cc2[n+]1=O : > 100 µM

Reported TGI of CC/C=C\C/C=C\C1CC(=O)NCCCNCCCCN1 (stereo unspecified) : > 100 µM

Reported TGI of c1cc[c]([Sn]([S]c2cccc3cccnc23)([c]2ccccc2)[c]2ccccc2)cc1 : 0.109 µM

Reported TGI of COc1ccc(C2=NC(C)(C)CO2)cc1 : > 100 µM

Reported TGI of NS(=O)(=O)c1ccc(NC(=O)c2cccc3c(=O)c4ccccc4[nH]c23)cc1 : > 100 µM

Reported TGI of CCOC(=O)C(C)NC(=O)N(C)C12CC3CC(CC(C3)C1)C2 (stereo unspecified) : > 500 µM

###

Test system: SK-OV-3 ovarian
measurement_description: NCI tumour cell line growth inhibition, 48 h
measured_property: GI50

Reported GI50 of CS(=O)(=O)Nc1ccc(-c2ccc3c(NC(=O)C4CC4)n[nH]c3c2)cc1 : 13.7 µM

Reported GI50 of CNc1nc(NC2CCCC2)nc(Sc2ccc(OC)cc2)n1 : > 10 µM

Reported GI50 of Cc1ncc(NC(=O)c2ccc(CN3CCN(C)CC3)c(C(F)(F)F)c2)cc1Nc1nccc(-c2cccnc2)n1 : 19.3 µM

Reported GI50 of CN(C)CCNC(=O)Nc1c(C#N)[n+]([O-])c2cc(Cl)c(Cl)cc2[n+]1[O-] : 21.1 µM

Reported GI50 of COc1ccc(NC2=C(Br)C(=O)C(C)=C(C)C2=O)cc1 : 12.3 µM

Reported GI50 of FC(F)(F)c1ccc2c(Nc3cccc(C4CC(c5ccccc5)=NN4c4ccc(Cl)cc4)c3)ccnc2c1 (centres undefined) : 11.2 µM

Reported GI50 of COc1cc(-c2cn(C)c(=O)c(C)c2C)cc(OC)c1CN1CC[C@H](N2CCN(c3ccc(N[C@H]4CCC(=O)NC4=O)cc3F)CC2)C(F)(F)C1 : 18.4 µM

Reported GI50 of CC1(C)OC(=O)C=C([O-])O1.CC1(C)OC(=O)C=C([O-])O1.O=c1c(O)c(-c2ccc([O-])cc2[O-])oc2cc(O)cc(O)c12.[Ti+4] : 83.1 µM

Reported GI50 of O=C(N/N=C/c1ccc(Cl)cc1Cl)c1ccccc1Nc1cccc(C(F)(F)F)c1 : 12.5 µM

###

Tested on: CCRF-CEM leukemia
measurement_description: NCI tumour cell line growth inhibition, 48 h; in the data active = GI50 below about 0.43 µM; inactive = the rest
A correct response names exactly one class from active, inactive

Ask: Look up the recorded call for C=CC(=O)N1CCN(c2ncnc3c(F)c(-c4c(O)cccc4F)c(Cl)cc23)CC1 in this test.
Reply: inactive

Ask: Look up the recorded call for COCC(=O)OC1CCn2c1nc1c2C(=O)C(C)=C(NC(C)=O)C1=O (stereo not drawn) in this test.
Reply: active

Ask: Look up the recorded call for N#Cc1c(-c2ccccc2)nc2c(c(-c3ccccc3)nn2-c2ccccc2)c1-c1ccc(O)cc1 in this test.
Reply: inactive

Ask: Look up the recorded call for C=C(C)[C@@H]1CC[C@@]2(C(=O)O)CC[C@]3(C)C(CCC4[C@@]5(C)CCC(OS(=O)(=O)c6ccccc6)C(C)(C)C5CC[C@]43C)C12 (stereo partly drawn) in this test.
Reply: inactive

Ask: Look up the recorded call for CCCS(=O)(=O)c1nc(NC2CC2)cc(-c2ccc3c(ccn3C3CC(C)(C)NC(C)(C)C3)c2)n1 in this test.
Reply: inactive

Ask: Look up the recorded call for Cc1noc(C)c1-c1ccc2[nH]c(=O)n3c2c1OC[C@@H]3c1ccccn1 in this test.
Reply: inactive

Ask: Look up the recorded call for CCN(CCO)CCNc1ccc(C)c2sc3cc(Cl)ccc3c(=O)c12 in this test.
Reply: inactive

Ask: Look up the recorded call for CCCCCCNc1nc(NCCCCCC)c2[nH]c(NCCCCCC)nc2n1 in this test.
Reply: inactive

Data credit: PubChem BioAssay (NCI)
